Assay: Compound solubility in water
Assay type: physicochemical
Parameter measured: solubility (µg/mL)

Past entries and their recorded results:
{"columns": ["Molecule", "Unit annotation", "solubility"],
 "data": [
  ["Cc1cc(-c2ccc(F)cc2)nn2c(C(=O)NC(C)(C)C3CC3)ncc12", "µg/mL", 1.2],
  ["C#Cc1ccc(NC(=O)c2cnc3ccc(Cl)nn23)cc1", "µg/mL", 15],
  ["Cc1cc(C)c2cnc(C(=O)NC3CCCc4ccccc43)n2n1 (stereo not shown)", "µg/mL", 38.4],
  ["Cc1cc(-c2occc2C#N)nn2c(C(=O)NC(C3CC3)C(F)(F)F)cnc12 (stereo not shown)", "µg/mL", 0.7],
  ["Cc1cc(-c2ccc3ocnc3c2)nn2c(C(=O)N[C@@H](C)C(F)(F)F)cnc12", "µg/mL", 1.2]
]}

a: C#Cc1ccc(NC(=O)c2cnc3c(C)cc(C)nn23)cc1
b: COc1cccc(-c2cc(C)c3ncc(C(=O)NC(C4CC4)C(F)(F)F)n3n2)n1 (stereo not shown)
Please choose the item with the lower solubility value from this pair: a and b Let me know the label of the one you choose.
a

---

Experiment: Compound solubility in water
Format: physicochemical
Parameter measured: solubility (µg/mL)

Past entries and their recorded results:
{"columns": ["Compound", "Parameter measured", "Test result"],
 "data": [
  ["Cc1cc(-c2cccc(C(N)=O)c2)nc2c(C(=O)NC(C3CC3)C(F)(F)F)nsc12 (stereo not drawn)", "solubility", 1.4],
  ["CCC(NC(=O)c1cnc2cc(C)c(Cl)nn12)c1ccccc1 (stereo not drawn)", "solubility", 14.6],
  ["Cc1cc(-c2ccc(F)cc2)nn2c(C(=O)N[C@@H](C)C3CC3)nnc12", "solubility", 1]
]}

A: Cc1cc(-c2ccc3ocnc3c2)nn2c(C(=O)NC(C3CC3)C(F)(F)F)cnc12 (stereo not drawn)
B: Cc1cc(C#N)c(-c2cc(C)c3ncc(C(=O)N[C@@H](C)C(F)(F)F)n3n2)o1
Identify the entry with the larger solubility. Options: A and B Let me know the label of the one you choose.
A
(A: 0.2 µg/mL, B: 0.1 µg/mL)

P: Cc1cc(-c2cccc(Cl)n2)nn2c(C(=O)NC(C)C(F)(F)F)cnc12 (stereo not drawn)
Q: Cc1cc(C)c2cnc(C(=O)Nc3ccc(-c4cocn4)cc3)n2n1
R: Cc1cc(-c2cncc(F)c2)nn2c(C(=O)NC(C3CC3)C(F)(F)F)cnc12 (stereo not drawn)
S: Cc1cc(-c2ccc(F)o2)nn2c(C(=O)NC(C3CC3)C(F)(F)F)cnc12 (stereo not drawn)
T: Cc1cc(-c2cccc(F)c2)nn2c(C(=O)N[C@@H](C3CC3)C(F)(F)F)ncc12
# rank by solubility, ascending (min first) Order the labels as requested and list them.
T, Q, S, R, P
(T: 0.2 µg/mL, Q: 0.4 µg/mL, S: 0.6 µg/mL, R: 1.3 µg/mL, P: 3.5 µg/mL)

---

Assay: Compound solubility in water
Assay type: physicochemical
Parameter measured: solubility (µg/mL)

Past entries and their recorded results:
{"columns": ["Compound", "Unit annotation", "Test result"],
 "data": [
  ["Cc1cc(-c2cccc(F)c2)nn2c(C(=O)NC(C)C(F)(F)F)ncc12 (stereo not drawn)", "µg/mL", 3],
  ["CCCCCO[C@H]1CC[C@H](NC(=O)c2cnc3ccc(Cl)nn23)CC1", "µg/mL", 17],
  ["Cc1cc(-c2cccc(F)c2)nn2c(C(=O)NC(C3CC3)C(F)(F)F)cnc12 (stereo not drawn)", "µg/mL", 0.03],
  ["Cc1cc2ncc(C(=O)NC3CCCc4ccccc43)n2nc1Cl (stereo not drawn)", "µg/mL", 3.6]
]}

a: Cc1cc(N2CCCC(F)(F)C2)nn2c(C(=O)N[C@@H](C3CC3)C(F)(F)F)cnc12
b: CCC(NC(=O)c1cnc2c(C)cc(C)nn12)c1ccccc1 (stereo not drawn)
Please choose the item with the lower solubility value from this pair: a and b Let me know the label of the one you choose.
a
(a: 1.9 µg/mL, b: 18.8 µg/mL)
